Entries and their IC50
Molecular target: RON (human) (Homo sapiens, UniProt Q04912)
Sequence (Q04912 25-1400): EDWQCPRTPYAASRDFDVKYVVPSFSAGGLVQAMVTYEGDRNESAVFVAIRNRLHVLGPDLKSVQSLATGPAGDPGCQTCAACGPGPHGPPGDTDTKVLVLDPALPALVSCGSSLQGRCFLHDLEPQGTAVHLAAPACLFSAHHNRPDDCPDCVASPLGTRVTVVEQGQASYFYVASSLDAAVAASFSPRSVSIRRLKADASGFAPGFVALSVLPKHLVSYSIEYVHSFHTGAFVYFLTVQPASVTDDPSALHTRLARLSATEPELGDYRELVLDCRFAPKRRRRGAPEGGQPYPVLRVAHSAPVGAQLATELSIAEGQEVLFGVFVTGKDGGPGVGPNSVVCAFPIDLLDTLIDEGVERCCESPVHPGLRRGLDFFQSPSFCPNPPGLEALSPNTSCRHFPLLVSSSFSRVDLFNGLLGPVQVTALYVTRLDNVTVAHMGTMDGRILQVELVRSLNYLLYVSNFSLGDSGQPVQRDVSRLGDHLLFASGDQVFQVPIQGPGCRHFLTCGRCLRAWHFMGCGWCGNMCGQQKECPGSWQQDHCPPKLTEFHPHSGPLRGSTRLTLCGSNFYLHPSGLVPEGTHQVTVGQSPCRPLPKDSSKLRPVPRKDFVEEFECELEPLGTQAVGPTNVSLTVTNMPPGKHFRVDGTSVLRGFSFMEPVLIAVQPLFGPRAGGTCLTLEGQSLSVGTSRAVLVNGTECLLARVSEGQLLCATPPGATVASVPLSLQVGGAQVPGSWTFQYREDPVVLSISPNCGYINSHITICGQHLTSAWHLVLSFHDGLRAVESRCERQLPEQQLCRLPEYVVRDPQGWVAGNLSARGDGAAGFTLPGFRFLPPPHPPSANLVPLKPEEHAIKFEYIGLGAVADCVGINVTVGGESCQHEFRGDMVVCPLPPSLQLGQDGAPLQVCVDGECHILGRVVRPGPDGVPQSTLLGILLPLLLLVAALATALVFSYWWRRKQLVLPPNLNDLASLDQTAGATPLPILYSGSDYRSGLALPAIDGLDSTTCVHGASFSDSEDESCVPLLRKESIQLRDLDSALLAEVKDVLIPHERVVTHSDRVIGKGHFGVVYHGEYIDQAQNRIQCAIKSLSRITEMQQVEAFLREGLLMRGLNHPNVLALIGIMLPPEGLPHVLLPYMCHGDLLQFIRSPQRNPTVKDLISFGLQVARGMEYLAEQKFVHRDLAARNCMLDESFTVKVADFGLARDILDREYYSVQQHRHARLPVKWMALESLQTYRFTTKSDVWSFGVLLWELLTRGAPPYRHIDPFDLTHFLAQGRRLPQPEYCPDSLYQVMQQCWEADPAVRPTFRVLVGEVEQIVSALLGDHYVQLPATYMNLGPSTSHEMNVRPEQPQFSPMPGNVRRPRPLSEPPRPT
Experiment: RON (human) AlphaScreen kinase assay, Km of ATP
Format: biochemical
Conditions: AlphaScreen, Km of ATP; read-out: RON biochemical IC50
measurement.kind: IC50

[
  {
    "molecule": "C[C@@H](Oc1c(N)ncc2c(C(=O)NCCN)coc12)c1c(Cl)ccc(F)c1Cl",
    "result": "500 to 5000 nM"
  },
  {
    "molecule": "C[C@@H](Oc1c(N)ncc2c(-c3cnn(C4CCNCC4)c3)coc12)c1nnc2ccc(-c3cnn(C)c3)nn12",
    "result": "5000 to 20000 nM"
  },
  {
    "molecule": "C[C@@H](Oc1c(N)ncc2c(C3=CCN(CC#N)CC3)coc12)c1c(Cl)ccc(F)c1Cl",
    "result": "500 to 5000 nM"
  },
  {
    "molecule": "Nc1ncc2c(-c3cnn(C4CCNCC4)c3)coc2c1OC1CCCc2c(F)cccc21 (stereo not shown)",
    "result": "< 500 nM"
  },
  {
    "molecule": "C[C@@H](Oc1c(N)ncc2c(C3=CCN(C(=O)[C@@H]4CCCCN4)CC3)coc12)c1c(Cl)ccc(F)c1Cl",
    "result": "< 500 nM"
  },
  {
    "molecule": "C[C@@H](Oc1c(N)ncc2c(-c3ccc(CN4CCOCC4)s3)coc12)c1c(Cl)ccc(F)c1Cl",
    "result": "500 to 5000 nM"
  },
  {
    "molecule": "CC(Oc1c(N)ncc2c(-c3cnn(C4CCNCC4)c3)coc12)c1ccccc1 (stereo not shown)",
    "result": "500 to 5000 nM"
  },
  {
    "molecule": "C[C@@H](Oc1c(N)ncc2c(C3=CCN(C(N)=O)CC3)coc12)c1c(Cl)ccc(F)c1Cl",
    "result": "< 500 nM"
  },
  {
    "molecule": "C[C@@H](Oc1c(N)ncc2c(C3=CCN(C(C)(C)C)CC3)coc12)c1c(Cl)ccc(F)c1Cl",
    "result": "< 500 nM"
  },
  {
    "molecule": "CC(Oc1c(N)ncc2c(-c3cnn(C4CCNCC4)c3)coc12)c1ccc(F)cc1 (stereo not shown)",
    "result": "500 to 5000 nM"
  },
  {
    "molecule": "CC(Oc1c(N)ncc2c(-c3cnn(C4CCNCC4)c3)coc12)c1cccc(C(F)(F)F)c1 (stereo not shown)",
    "result": "500 to 5000 nM"
  },
  {
    "molecule": "C[C@@H](Oc1c(N)ncc2c(-c3ccc(C(=O)N4CCCCC4)cc3)coc12)c1c(Cl)ccc(F)c1Cl",
    "result": "500 to 5000 nM"
  },
  {
    "molecule": "CCC(=O)N1CC=C(c2coc3c(O[C@H](C)c4c(Cl)ccc(F)c4Cl)c(N)ncc23)CC1",
    "result": "500 to 5000 nM"
  },
  {
    "molecule": "CNC(=O)c1csc(-c2coc3c(O[C@H](C)c4c(Cl)ccc(F)c4Cl)c(N)ncc23)c1",
    "result": "5000 to 20000 nM"
  },
  {
    "molecule": "C[C@@H](Oc1c(N)ncc2c(-c3ccccn3)coc12)c1c(Cl)ccc(F)c1Cl",
    "result": "500 to 5000 nM"
  },
  {
    "molecule": "Cn1c(Cc2ccccc2)ncc(-c2ccc(COc3c(N)ncc4c(-c5cnn(C6CCNCC6)c5)coc34)c(F)c2)c1=O",
    "result": "< 500 nM"
  }
]
